target: Pseudomonas stuztzeri psLacBP11 variant W195C, SEQ ID NO: 45, Acrylodan conjugate (Stutzerimonas nitrititolerans, UniProt A0ABX9V4I2, W224C); construct: Acrylodan on Cys195; assay: Fluorescence titration of conjugate; assay type: binding; conditions: read-out: appKd (lactate); λ1 487, λ2 466 nm
Sequence (A0ABX9V4I2 entry or part of it W224C): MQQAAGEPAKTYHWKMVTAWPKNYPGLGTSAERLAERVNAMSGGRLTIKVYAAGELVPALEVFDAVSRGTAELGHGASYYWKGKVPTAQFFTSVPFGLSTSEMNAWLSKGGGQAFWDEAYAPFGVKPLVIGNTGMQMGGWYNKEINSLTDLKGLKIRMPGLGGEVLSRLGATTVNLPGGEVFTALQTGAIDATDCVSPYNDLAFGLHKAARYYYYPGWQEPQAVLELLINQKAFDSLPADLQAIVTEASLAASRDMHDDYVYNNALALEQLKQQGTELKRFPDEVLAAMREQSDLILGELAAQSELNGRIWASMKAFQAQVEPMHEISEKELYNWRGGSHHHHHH
pKd: −log10 of the molar value.
property_measured: pKd

Quick check: pKd of C[C@H](O)C(=O)O [lactate] ? < 1.00

----------
target: Marinobacter sp. msLacBP6 variant V188C, SEQ ID NO: 39, Badan conjugate; assay: Fluorescence titration of conjugate; conditions: read-out: trueKd (lactate); monochromatic, 513 nm
property_measured: pKd
Numbers only, as −log10 of the molar value.

Quick check: pKd of C[C@H](O)C(=O)O [lactate] ? 3.40

----------
biological target: Marinobacter sp. msLacBP6 variant 187C, L70M, SEQ ID NO: 53, Acrylodan conjugate; test: Fluorescence titration of conjugate (affinity tuning); format: binding; conditions: read-out: trueKd (lactate); λ1 455, λ2 479 nm
property_measured: pKd
Answers are plain numbers, as −log10 of the molar value.

Any idea what pKd came out for C[C@H](O)C(=O)O [lactate] on Marinobacter sp. msLacBP6 variant 187C, L70M, SEQ ID NO: 53, Acrylodan conjugate? 2.92

----------
target: Marinobacter sp. msLacBP6 variant 187C, P150S, SEQ ID NO: 55, Badan conjugate; experiment: Fluorescence titration of conjugate (affinity tuning); settings: read-out: trueKd (lactate); monochromatic, 528 nm
property_measured: Kd (mM)
One number for each entry, in mM.

Quick check: Kd of C[C@H](O)C(=O)O [lactate] ? 14.4

----------
biological target: Marinobacter sp. msLacBP6 variant 187C, F68L, SEQ ID NO: 49, Acrylodan conjugate; assay: Fluorescence titration of conjugate (affinity tuning); format: binding; conditions: read-out: trueKd (lactate); λ1 459, λ2 516 nm
property_measured: pKd
One number for each entry, as −log10 of the molar value.

Quick check: pKd of C[C@H](O)C(=O)O [lactate] ? 3.30

----------
molecular target: Marinobacter sp. msLacBP6 variant G170C, SEQ ID NO: 36, Acrylodan conjugate; experiment: Fluorescence titration of conjugate; type: binding; details: read-out: trueKd (lactate); λ1 518, λ2 490 nm
property_measured: pKd
One number for each entry, as −log10 of the molar value.

Quick check: pKd of C[C@H](O)C(=O)O [lactate] ? 5.30
